Tested on: human colon cancer HT29
Protocol text: In vitro cell growth inhibition test, MTT assay
Assay type: cell-based
Applied conditions: MTT assay 4 days after compound addition
Threshold 0.02 µg/mL: IC50, HT29 strictly smaller gives label 1, otherwise label 0.

| Chem smiles | Label |
| --- | --- |
| CCNC(=Nc1nc(CC)ncc1CSc1nnc(-c2ccccc2N)o1)NCC | label 0 |
| CCNC(=Nc1ncncc1CSc1nnc(-c2ccc(F)cc2)o1)NCC | label 1 |
| CCCNC(=Nc1nc(C)ncc1CSc1nnc(-c2ccc([N+](=O)[O-])cc2)o1)NCCC | label 1 |

INPUT: In the record for CCNC(=Nc1ncncc1CSc1nnc(-c2ccncc2N)o1)NCC , is IC50, HT29 less than 0.02 µg/mL?
OUTPUT: label 1

INPUT: In the record for CCNC(=Nc1nc(CC)ncc1CSc1nnc(-c2ccc(N)cc2)o1)NCC , is IC50, HT29 less than 0.02 µg/mL?
OUTPUT: label 1

INPUT: In the record for CCCNC(=Nc1ncncc1CSc1nnc(-c2ccc([N+](=O)[O-])cc2)o1)NCC , is IC50, HT29 less than 0.02 µg/mL?
OUTPUT: label 1

INPUT: In the record for CNC(=Nc1nc(C)ncc1CSc1nnc(-c2ccc(N)cc2)o1)NC , is IC50, HT29 less than 0.02 µg/mL?
OUTPUT: label 1

INPUT: In the record for CCNC(=Nc1ncncc1CSc1nnc(-c2ccc([N+](=O)[O-])cc2)o1)NCCN , is IC50, HT29 less than 0.02 µg/mL?
OUTPUT: label 0

INPUT: In the record for CCNC(=Nc1ncncc1CSc1nnc(-c2ccc(C(N)=S)cc2)o1)NCC , is IC50, HT29 less than 0.02 µg/mL?
OUTPUT: label 0

INPUT: In the record for CCNC(N)=Nc1nc(C)ncc1CSc1nnc(-c2ccc([N+](=O)[O-])cc2)o1 , is IC50, HT29 less than 0.02 µg/mL?
OUTPUT: label 1

INPUT: In the record for CCNC(=Nc1ncncc1CSc1nnc(-c2ccc(C)nc2)o1)NCC , is IC50, HT29 less than 0.02 µg/mL?
OUTPUT: label 0

INPUT: In the record for CCNC(=Nc1nc(C)ncc1CSc1nnc(-c2ccccc2C)o1)NCC , is IC50, HT29 less than 0.02 µg/mL?
OUTPUT: label 0

INPUT: In the record for CCNC(=Nc1ncncc1CSc1nnc(-c2ccc(N)cc2)o1)NC , is IC50, HT29 less than 0.02 µg/mL?
OUTPUT: label 1

INPUT: In the record for CCNC(=Nc1nc(C)ncc1CSc1nnc(-c2ccsc2NC(C)=O)o1)NCC , is IC50, HT29 less than 0.02 µg/mL?
OUTPUT: label 0

* * *

System: human colon cancer HT29
Protocol text: In vitro cell growth inhibition test, MTT assay
Type: cell-based
Applied conditions: MTT assay 4 days after compound addition
IC50, HT29 listing for selected compounds.
API: value field is a number in µg/mL; no unit string.

# count of solved cases: 3
| Chem smiles | Obs value |
| --- | --- |
| CCNC(=Nc1nc(C)ncc1CSc1nnc(-c2ccc([N+](=O)[O-])cc2OC)o1)NCC | 0.0055 |
| CCNC(=Nc1nc(C)ncc1CSc1nnc(-c2ccc(N)c(O)c2)o1)NCC | 0.05 |
| CCNC(=Nc1nc(C)ncc1CSc1nnc(-c2ccccc2Cl)o1)NCC | 0.044 |

Now consider a different compound.
INPUT: // Input: CCCNC(=Nc1nc(CC)ncc1CSc1nnc(-c2ccc([N+](=O)[O-])cc2)o1)NC . Output its IC50, HT29 only.
OUTPUT: 0.031

* * *

System: human colon cancer HT29
Protocol text: In vitro cell growth inhibition test, MTT assay
Assay type: cell-based
Applied conditions: MTT assay 4 days after compound addition
Excerpt: Test Example 2 In Vitro Cell Growth Inhibition Test Cells and MTT Assay Human squamous lung cancer […], human squamous lung cancer Ma44, human lung adenocarcinoma A549, human colon cancer HT29 and human pancreas cancer PANC-1 were used.
Threshold 0.04 µg/mL: IC50, HT29 strictly smaller gives class 1, otherwise class 0.

Field: example entries. Status: answers known.
| Chem smiles | Measured on | Label |
| --- | --- | --- |
| Cc1ncc(CSc2nnc(-c3ccc([N+](=O)[O-])cc3)o2)c(N=C(NCC(C)C)NCC(C)C)n1 | human colon cancer HT29 | class 0 |
| CCNC(=Nc1nc(C)ncc1CSc1nnc(-c2ccc(O)cc2)o1)NCC | human colon cancer HT29 | class 0 |
| CNC(=Nc1nc(C)ncc1CSc1nnc(-c2ccc([N+](=O)[O-])cc2)o1)NC(C)C | human colon cancer HT29 | class 1 |
| CCNC(=Nc1nc(C)ncc1CSc1nnc(-c2ccc(C(F)(F)F)cc2)o1)NCC | human colon cancer HT29 | class 0 |
| CCc1ncc(CSc2nnc(-c3ccc([N+](=O)[O-])cc3)o2)c(N=C(NC)NC)n1 | human colon cancer HT29 | class 0 |

INPUT: In the record for CCNC(=Nc1nc(C)ncc1CSc1nnc(-c2ccc(N)cc2OC)o1)NCC , is IC50, HT29 less than 0.04 µg/mL?
OUTPUT: class 1

* * *

Tested on: human colon cancer HT29
Protocol text: In vitro cell growth inhibition test, MTT assay
Format: cell-based
Applied conditions: MTT assay 4 days after compound addition
Attribute measured: IC50, HT29 (ng/mL)
API: value field is a number in ng/mL; no unit string.

# count of solved cases: 8
| Chem smiles | Measured on | Measure unit | IC50, HT29 |
| --- | --- | --- | --- |
| CCNC(=Nc1nc(C)ncc1CSc1nnc(-c2ccc(F)cc2N)o1)NCC | human colon cancer HT29 | ng/mL | 2.8 |
| C#CCNC(=Nc1nc(C)ncc1CSc1nnc(-c2ccc([N+](=O)[O-])cc2)o1)NCC | human colon cancer HT29 | ng/mL | 2 |
| CCc1ncc(CSc2nnc(-c3ccc(N)cc3)o2)c(N=C(NC)NC)n1 | human colon cancer HT29 | ng/mL | 15 |
| CCCNC(N)=Nc1nc(C)ncc1CSc1nnc(-c2ccc(N)cc2)o1 | human colon cancer HT29 | ng/mL | 8 |
| CCCNC(=Nc1nc(C)ncc1CSc1nnc(-c2ccc(N)cc2)o1)NCC | human colon cancer HT29 | ng/mL | 6.1 |
| CCNC(=Nc1nc(C)ncc1CSc1nnc(-c2ccc(N)cc2N)o1)NCC | human colon cancer HT29 | ng/mL | 8 |
| CCNC(=Nc1ncncc1CSc1nnc(-c2ccc(SC)cc2)o1)NCC | human colon cancer HT29 | ng/mL | 23 |
| CNC(=Nc1nc(C)ncc1CSc1nnc(-c2ccccc2N)o1)NC | human colon cancer HT29 | ng/mL | 8.4 |

Now consider a different molecule.
INPUT: // Input: CCNC(=Nc1nc(C)ncc1CSc1nnc(-c2ccc(OCC)cc2)o1)NCC . Output its IC50, HT29 only.
OUTPUT: 52

* * *

IC50, HT29 listing for selected compounds.
Test system: human colon cancer HT29
Protocol text: In vitro cell growth inhibition test, MTT assay
Assay type: cell-based
Applied conditions: MTT assay 4 days after compound addition
API: value field is a number in µg/mL; no unit string.

# count of solved cases: 3
| Compound | Measure unit | IC50, HT29 |
| --- | --- | --- |
| CCNC(=Nc1ncncc1CSc1nnc(-c2ccoc2)o1)NCC [Compound D-30] | µg/mL | 0.033 |
| CCNC(=Nc1nc(C)ncc1CSc1nnc(-c2ccc(N)cc2F)o1)NCC [Compound A-81] | µg/mL | 0.007 |
| CCNC(=Nc1nc(C)ncc1CSc1nnc(-c2ccc([N+](=O)[O-])cn2)o1)NCC [Compound D-45] | µg/mL | 0.038 |

Now consider a different compound.
INPUT: // Input: CCCc1ccc(-c2nnc(SCc3cncnc3N=C(NCC)NCC)o2)cc1 [Compound A-116] . Output its IC50, HT29 only.
OUTPUT: 0.072

* * *

Tested on: human colon cancer HT29
Protocol text: In vitro cell growth inhibition test, MTT assay
Format: cell-based
Applied conditions: MTT assay 4 days after compound addition
Attribute measured: IC50, HT29 (µg/mL)
API: value field is a number in µg/mL; no unit string.

# count of solved cases: 3
| Chem smiles | Attribute measured | Obs value |
| --- | --- | --- |
| CCNC(=Nc1nc(C)ncc1CSc1nnc(-c2ccc(C)cc2)o1)NCC | IC50, HT29 | 0.01 |
| CCNC(=Nc1ncncc1CSc1nnc(-c2ccc(-n3cccc3)nc2)o1)NCC | IC50, HT29 | 0.025 |
| CCCNC(=Nc1nc(C)ncc1CSc1nnc(-c2ccc([N+](=O)[O-])cc2)o1)NC | IC50, HT29 | 0.014 |

Now consider a different molecule.
INPUT: // Input: CCNC(=Nc1ncncc1CSc1nnc(-c2ccc(N(C)C)cc2)o1)NCC . Output its IC50, HT29 only.
OUTPUT: 0.083
